Tested on: Fibroblast
method_summary: Incucyte cell viability with human fibroblast; also: unitless GR value; below 1 slowed growth and below 0 cell loss
Assay type: toxicity, cell-based
stated_conditions: 24 h, 10 µM, compound concentration 10 uM, replicate number 2
Records here are stratified by Growth Rate; strata: low: < 0.4; intermediate: ≥ 0.4 and < 0.8; high: ≥ 0.8

>  <compound>
CC(C)c1nc2c(c3c1[C@H](c1ccc(C(F)(F)F)cc1)OC31CCOCC1)[C@H](O)CC(C)(C)C2

>  <category>
low

$$$$
>  <compound>
Cc1cc(C)c(NC(=O)C2CC3CCC2C3)c(C)c1 (stereo not given)

>  <category>
high

$$$$
>  <compound>
O=C(O)C[C@H]1CCn2c1c(Sc1ccc(Cl)cc1)c1ccc(F)cc12

>  <category>
high

$$$$
>  <compound>
Cc1cc(Nc2ncc(Cl)c(Nc3ccccc3S(=O)(=O)C(C)C)n2)c(OC(C)C)cc1C1CCNCC1 [CERITINIB]

>  <category>
low

$$$$
>  <compound>
Cn1cc(NC(=O)c2ccc3nc4n(c3c2)CCCNC4=O)nc1C(=O)NC1CCCC1

>  <category>
high

$$$$
>  <compound>
C=CC(=O)Nc1ccc(C(=O)Nc2n[nH]c3c2CN(C(=O)N[C@H](CN(C)C)c2ccccc2)C3(C)C)cc1

>  <category>
low

$$$$
>  <compound>
COc1cc(F)ccc1-c1cc(Nc2cc(CS(C)(=N)=O)ccn2)ncc1F (stereo not given) [ENITOCICLIB]

>  <category>
intermediate

$$$$
>  <compound>
Cc1cc(CN)cc(C)c1-c1ncn(C)c1-c1ccnc2cc(F)ccc12.Cl

>  <category>
high

$$$$
>  <compound>
COc1ccc(C(F)(F)F)cc1NC(=O)Nc1ccc(Oc2cc(C)nc(N)n2)c2ccccc12

>  <category>
high

$$$$
>  <compound>
CC(=O)NCC(=O)N1[C@@H]2CC[C@H]1c1ccc(Nc3ncc(C(F)(F)F)c(NC4CCC4)n3)cc12 [PF-03814735]

>  <category>
low

$$$$
>  <compound>
COc1cc(-c2cn(C)c(=O)c3cnccc23)c(OC)cc1CN(C)C

>  <category>
intermediate

$$$$
>  <compound>
CC(C)Oc1ccc(F)c(-c2cnc(N)c(C(=O)Nc3cnccc3N3CCC[C@@H](C(=O)O)C3)n2)c1

>  <category>
intermediate

$$$$
>  <compound>
CNc1ncc2cc(-c3ccc(-c4cccc(C)n4)cc3Cl)c(=O)n(C[C@H]3OC[C@H](N)CO3)c2n1

>  <category>
low

$$$$
>  <compound>
O=C(O)c1ccc(CN2C[C@@H]3C[C@H]2CN3Cc2ccc(Oc3ccc(-c4ncco4)cc3)cc2)cc1 [ACEBILUSTAT]

>  <category>
high

$$$$
>  <compound>
C=C[C@@]12CCc3cc(O)ccc3[C@H]1CC[C@@]1(C)[C@H]2CC[C@@H]1O

>  <category>
intermediate

$$$$
>  <compound>
CC(=O)N1CCC(c2ccc(C(=O)NC3=NCCN3)cc2C(F)(F)F)CC1 [BI 0054]

>  <category>
high

$$$$
>  <compound>
CC#CC(=O)N1CCN(c2nc(-c3ccc(Oc4ccccc4)cc3)c(C(N)=O)s2)CC1

>  <category>
intermediate

$$$$
>  <compound>
CSc1nc2c(c(=O)n(C)c(=O)n2C)n1C

>  <category>
high

$$$$
>  <compound>
CCN(C(=O)CO)[C@H]1CN(/C(=N\C#N)Nc2cccc(OC(F)F)c2)N=C1c1ccc(Cl)c(Cl)c1

>  <category>
high

$$$$
>  <compound>
CCN(C)C(=O)c1ccc2c(c1)NC(=O)/C2=C(\NC1CCN(C)CC1)c1ccccc1

>  <category>
high

$$$$
>  <compound>
CN[C@@H](C)C(=O)N[C@H](C(=O)N1CCC[C@H]1c1nc(C(=O)c2ccc(F)cc2)cs1)C1CCCCC1 [LCL-161]

>  <category>
high

$$$$
>  <compound>
CCOc1ccccc1C(=O)NCC1(N2CCN(CC)CC2)CCCCC1

>  <category>
high

$$$$
>  <compound>
CCC(=O)Nc1cc(Nc2cc(NC3CC3)n3ncc(C#N)c3n2)ccc1C

>  <category>
high

$$$$
>  <compound>
CC(=O)c1ccc2c(c1)/C(=C(/NC1CCN(C)CC1)c1ccc3c(c1)OCO3)C(=O)N2

>  <category>
low

$$$$
>  <compound>
Cc1c(CCC(=O)O)cccc1NC(=O)[C@@H](c1ccc(-c2cncc(Cl)c2)c(F)c1)C1CCCC1

>  <category>
high

$$$$
>  <compound>
Cc1cc(C2CCCNC2)ccc1Nc1ncc(Br)c(NCc2cccc3c2C(C)(C)C(=O)N3)n1 (stereo not given)

>  <category>
low

$$$$
>  <compound>
Cn1cc(-n2cnc3c(NCc4nc5cc(Cl)c(Cl)cc5[nH]4)nc(N4CCOCC4)nc32)cn1

>  <category>
low

$$$$
>  <compound>
O=C(Nc1ccc(Cl)c(-c2ccccn2)c1)c1cccc(COc2ccc(Br)cc2CNCCO)c1.O=CO

>  <category>
low

$$$$
>  <compound>
CCN1CCN(Cc2ccc(NC(=O)c3ccc(C)c(NC(=O)c4cncc(-c5cccs5)c4)c3)cc2C(F)(F)F)CC1

>  <category>
low

$$$$
>  <compound>
CC(C)c1nc2c(c3c1[C@@H](c1ccc(C(F)(F)F)cc1)OC31CCOCC1)[C@@H](O)CC(C)(C)C2.Cl

>  <category>
high

$$$$
>  <compound>
CN(C)CCC[C@@]1(c2ccc(F)cc2)OCc2cc(C#N)ccc21 [ESCITALOPRAM]

>  <category>
intermediate

$$$$
>  <compound>
CC(C)S(=O)(=O)c1ccccc1Nc1nc(N[C@@H]2CCCN(CCCCCCCNC(=O)COc3cccc4c3C(=O)N(C3CCC(=O)NC3=O)C4=O)C2)ncc1Cl (stereo not given in full)

>  <category>
low

$$$$
